Reference for the values: PubChem BioAssay (NCI)

- run.description: NCI Yeast Anticancer Drug Screen. Data for the rad14 strain (AID 159);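 note: 0% = growth of vehicle-treated control cultures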
- measurement.context: S. cerevisiae rad14 strain growth inhibition; at 33.0 µM
About 79,000 compounds went through this panel and 15% of them were active in at least one assay; those are over-represented in the sample as a whole. Active and inactive are the calls of the source. Cut-off read from the data, not from the text of the source: active = growth inhibition above about 70%; inactive = the rest.
Lab note: assign the record to one of YES (active), NO (inactive)

Example entries begin here.
{"columns": ["molecule", "discrete.label"],
 "data": [
  ["CC1(C)OC(=O)C(=Cc2ccc([N+](=O)[O-])s2)C(=O)O1", "NO"],
  ["CCN(CC)CCNc1ccc2nc(C)n3c4ccc(OC)cc4c(=O)c1c23", "NO"],
  ["N#CCCC1C(C#N)C2(Cl)CC1(Cl)C(Cl)=C2Cl (stereo not drawn)", "YES"],
  ["O=C1c2ccccc2C(=O)c2c(O)c(NCCNCCO)cc(O)c21", "YES"],
  ["CC(C)OP(=O)(OC(C)C)C(=NCCO)NNc1ccc([N+](=O)[O-])cc1", "NO"],
  ["CCOC(=O)C(Cc1c2ccccc2cc2ccccc12)(NC(C)=O)C(=O)OCC", "NO"],
  ["C/C(=N\\Sc1ccccc1)c1ccccc1O", "NO"]
]}

Now, please, on to the next molecule.
Prompt: # fetch the recorded call for CC(C)OP(=O)(OC(C)C)/C(Cl)=N/Nc1ccc([N+](=O)[O-])cc1 here
Response: NO

====

Known growth inhibition of a selection of compounds
- run.description: NCI Yeast Anticancer Drug Screen. Data for the rad50 strain (AID 155);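 note: 0% = growth of vehicle-only cultures of the same strain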
- measurement.context: S. cerevisiae rad50 strain growth inhibition; at 50.0 µM (retest, dose inferred, filed as 5.0); active compounds read high
Compounds without any hit were thinned out: in the full panel of roughly 79,000, 15% have a hit.
State just the number; it will be interpreted in %.

Recorded growth inhibition, per entry:
{"columns": ["compound", "growth inhibition (%)"],
 "data": [
  ["OC(CC(O)(C(F)(F)F)C(F)(F)F)c1ccc(C(O)CC(O)(C(F)(F)F)C(F)(F)F)cc1 (configuration not stated)", 100],
  ["Cc1oc2ccccc2c(=O)c1Cn1nnc2ccccc21", 47],
  ["O=[N+]([O-])/C=C/c1cc2ccc3ccccc3c2[nH]1", 96]
]}

Prompt: Dear colleague, I am looking for the recorded growth inhibition of the following compound: O=S1(=O)CCC2=CC(C(F)(F)F)=CC(C(F)(F)F)=CN21
Response: 96

Prompt: Which growth inhibition is listed for CN(C)/C(=N/C(=S)Nc1ccccc1)SCc1ccccc1 ?
Response: 70

Prompt: So what's the measured growth inhibition for this one? O=c1c2ccccc2nc(-c2cccc([N+](=O)[O-])c2)n1O
Response: 97

Prompt: Item under review: Nc1cc(Cl)ccc1Nc1ccccc1 . Reported growth inhibition?
Response: 99

====

Measured growth inhibition, listed per entry.
- run.description: NCI Yeast Anticancer Drug Screen. Data for the sgs1 strain (AID 173);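 note: 0% = growth of vehicle-only control cultures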
- measurement.context: S. cerevisiae sgs1 mutant, at 1.2 µM, active compounds read high
The panel holds about 79,000 compounds, 15% with a hit somewhere; the sample as a whole holds those more often.
The figure you give is taken to be in %; do not add the unit.

Some solved entries appear below for comparison.
{"columns": ["compound", "quantity.measured", "unit", "quantitative.readout"],
 "data": [
  ["O=c1c2ccccc2nc(-c2cccc([N+](=O)[O-])c2)n1O", "growth inhibition", "%", 37],
  ["COC(=O)C1CCCCC1C(=O)Nc1ccccc1 (centres undefined)", "growth inhibition", "%", -2],
  ["CC1(C)CC(=O)C(C(=O)Nc2cccs2)=C(O)C1", "growth inhibition", "%", 8],
  ["CCN(CC)CC(=O)c1ccc2cc(Cl)c3ccccc3c2c1", "growth inhibition", "%", 25]
]}

Prompt: Entry CCCCCCCSCC1C(=O)C23C(O)C1CCC2C12COC3(O)C(O)C1C(C)(C)CCC2O (centres undefined) : reported growth inhibition = ?
Response: 26

Prompt: Would you mind telling me what growth inhibition value was observed for Cc1c2c(nc3ccccc13)C(=O)c1cccnc1C2=O ?
Response: -9

Prompt: Which growth inhibition is listed for CC(C)=CCc1c2c(c(O)c3c(=O)c(-c4ccc(O)c(O)c4)coc13)C=CC(C)(C)O2 ?
Response: -46

Prompt: Consider the compound Nc1cc(Cl)ccc1Nc1ccccc1 and give its measured growth inhibition.
Response: -53

Prompt: Reported growth inhibition, compound N#CCCC1C(C#N)C2(Cl)CC1(Cl)C(Cl)=C2Cl (centres undefined) : ____
Response: 22
